# EXPERIMENTAL SYSTEM: human AT1 receptor (Homo sapiens)
# Construct: expressed in transfected cells; membrane fraction
# Sequence (P30556 whole entry): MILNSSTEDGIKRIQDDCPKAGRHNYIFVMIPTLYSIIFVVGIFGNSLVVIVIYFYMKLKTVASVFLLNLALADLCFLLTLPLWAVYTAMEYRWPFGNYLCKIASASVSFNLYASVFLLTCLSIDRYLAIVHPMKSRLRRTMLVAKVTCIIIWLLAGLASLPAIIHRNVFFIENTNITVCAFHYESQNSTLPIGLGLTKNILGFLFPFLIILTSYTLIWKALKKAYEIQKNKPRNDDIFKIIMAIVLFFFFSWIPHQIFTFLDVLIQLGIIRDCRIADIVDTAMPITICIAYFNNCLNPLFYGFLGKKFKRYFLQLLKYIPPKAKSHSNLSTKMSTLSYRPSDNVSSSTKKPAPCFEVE
# TEST SUMMARY: AT1 receptor antagonistic activity: [125I]-angiotensin II binding assay on human AT1 receptor-expressing CHO-K1 cellular membrane fraction
# CONDITION SET: 22.5 pM [125I]-angiotensin II, 1 hr room temperature
MEASURE NAME: IC50 (nM)

Answered cases to consult:
CCCc1c(Cc2ccc(-c3ccccc3-c3noc(=O)[nH]3)cc2)c(=O)n([C@H]2CC[C@@H](OCCO)CC2)c2nc(C)nn12 [Example 288] :: 2.7
CCCc1c(Cc2ccc(-c3ccccc3-c3noc(=O)[nH]3)cc2)c(=O)n([C@H]2CC[C@H](OCC3(CO)CCC3)CC2)c2ncnn12 [Example 228] :: 1.5

I: CCCc1c(Cc2ccc(-c3ccccc3-c3noc(=O)[nH]3)cc2)c(=O)n(C2CCC3(CC2)OCC(C)(C)O3)c2ncnn12 (stereo not drawn) [Example 179]
II: CCCCc1c(Cc2ccc(-c3ccccc3-c3noc(=O)[nH]3)cc2)c(=O)n(C2CCOC(C)(C)C2)c2ncnn12 (stereo not drawn) [Example 134]
INPUT: Quick one: lower IC50, I or II ? # reply format: chosen label
OUTPUT: II
(II: 1.3 nM, I: 1.9 nM)

A: CCCc1c(Cc2ccc(-c3ccccc3-c3noc(=O)[nH]3)cc2)c(=O)n(C2CCC(=NOC(C)C)CC2)c2ncnn12 (stereo not drawn) [Example 193]
B: CCCCc1c(Cc2ccc(-c3ccccc3-c3noc(=O)[nH]3)cc2)c(=O)n(C2CCC(O)CC2)c2ncnn12 (stereo not drawn) [Example 147]
INPUT: Compare the recorded IC50 of A and B ; state which is larger. // caller expects the label of the chosen entry
OUTPUT: A
(A: 2 nM, B: 1 nM)

1: CCCc1c(Cc2ccc(-c3ccccc3-c3noc(=O)[nH]3)cc2)c(=O)n([C@H]2CC[C@H](OCC(C)=O)CC2)c2ccnn12 [Example 420]
2: CCCc1c(Cc2ccc(-c3ccccc3-c3noc(=O)[nH]3)cc2)c(=O)n([C@H]2CC[C@H](OCC(O)(CF)CF)CC2)c2ncnn12 [Example 339]
INPUT: For 1 and 2 , which recorded IC50 is lower? Please indicate the selected item by its label.
OUTPUT: 2
(2: 1.4 nM, 1: 2.2 nM)
